- Test system: Plasmodium berghei
- assay summary: Screen against P. berghei liver stage (PbLuc), transformed with Luciferase, at 10uM
- Type: functional, HepG2
- test settings: tested at 10 uM
The whole screen tested about 69,000 compounds, of which about 8,600 (12%) showed an effect of 50% or more. For the sample, strong results were picked, then their nearest neighbours and some compounds at random.
endpoint label: INHIBITION (%)
Report the figure in % without appending any unit label.

Example cases with answers are listed next.
NC(=O)c1csc(N2C[C@@H](CN3CCC(O)CC3)[C@@H](CO)C2)n1	19.6
CCNc1cc2c(nn1)CCN(C(=O)c1ccc(C(N)=O)cc1)C2	41.65
Cc1noc(C)c1-c1nc(C2CCCN(C(=O)C(C)C)C2)ccc1CO (stereo unspecified)	48.1

So the reported INHIBITION for "CNc1cc2c(nn1)CCN(C(=O)c1ccoc1)C2" , on Plasmodium berghei, turned out to be 51.3

So the reported INHIBITION for "CCNc1cc2c(nn1)CCN(C(=O)c1cc(C)n(C3CC3)c1C)C2" , on Plasmodium berghei, turned out to be 35.9

So the reported INHIBITION for "CCNc1cc2c(nn1)CCN(C(=O)c1ccnc(N(C)C)c1)C2" , on Plasmodium berghei, turned out to be 4.59
